- System: Escherichia coli
- measurement description: Antibacterial activity against Escherichia coli assessed as zone of inhibition at 50 microg/ml by cup plate analysis
- Type: functional
- experimental context: read-out: IZ
Provide the recorded zone of inhibition at 50 µg/mL for the entries that follow.
Give bare numbers, in mm.

Nc1nc(-c2ccsc2)cc(-c2ccc(Cl)cc2Cl)n1
12
CN(C)c1ccc(-c2cc(-c3ccsc3)nc(N)n2)cc1
11
CC1(C)S[C@@H]2[C@H](NC(=O)Cc3ccccc3)C(=O)N2[C@H]1C(=O)O
26

Proceeding to the next compound to report its zone of inhibition at 50 µg/mL.
// lookup zone of inhibition at 50 µg/mL for Nc1nc(-c2ccc(F)cc2)cc(-c2ccsc2)n1
13

Source: ChEMBL document CHEMBL5532639
